The values you see were collected from the Human Domainome abundance scans (Beltran et al. 2025).

B1: Storkhead-box protein 2, residues 64 to 141; numbered along this chain, Q9P2F5 (parent)
chain: SPISQSQFIPLGEILCLAISAMNSARKPVTQEALMEHLTTCFPGVPTPSQEILRHTLNTLVRERKIYPTPDGYFIVTP

# Variants of: B1
# assay.method.text: abundance fitness (aPCA) (normalised: wild type 0, dead -1); higher = more abundant; growth selection in yeast, the domain comes from the species named
# measurement.parameters: Homo sapiens
Hi, to clarify the labels: Fulfilled covers abundance fitness from -0.07 upward, Not fulfilled covers anything below -0.07.

>>> df
    variant_identifier  qualitative_label
 0                Q50A          Fulfilled
 1                T59E          Fulfilled
 2                T56P      Not fulfilled
 3                C16Y          Fulfilled
 4                 S1A      Not fulfilled
 5                S49Q      Not fulfilled
 6                 Q7N          Fulfilled
 7                P70T          Fulfilled
 8                A18H      Not fulfilled
 9                P10K          Fulfilled
10                I19S      Not fulfilled
11                G44T          Fulfilled
12                L34K      Not fulfilled
13                G72P      Not fulfilled
14                A33E          Fulfilled
15                T59S          Fulfilled
16                I75F      Not fulfilled
17                L60V      Not fulfilled
18                F74P      Not fulfilled
19                E13K          Fulfilled
20                 S4M          Fulfilled
21                I52D          Fulfilled
22                T56K          Fulfilled
23                N23H      Not fulfilled
24                G44Y          Fulfilled
25                G72R      Not fulfilled
26                L53Y      Not fulfilled
27                P28Q          Fulfilled
28                I66W      Not fulfilled
29                T56V          Fulfilled
30                K65T          Fulfilled
31                 S4K      Not fulfilled
32                E36F      Not fulfilled
33                I52C          Fulfilled
34                R54A          Fulfilled
35                 S4R      Not fulfilled
36                P48S      Not fulfilled
37                E63V          Fulfilled
38                V61P      Not fulfilled
39                R26A          Fulfilled
40                E51Q      Not fulfilled
41                I52H          Fulfilled
42                P28S      Not fulfilled
43                T59H          Fulfilled
44                 S4D          Fulfilled
